# measuredTarget: D(4) dopamine receptor (Rattus norvegicus, UniProt P30729)
# Sequence (P30729 whole entry): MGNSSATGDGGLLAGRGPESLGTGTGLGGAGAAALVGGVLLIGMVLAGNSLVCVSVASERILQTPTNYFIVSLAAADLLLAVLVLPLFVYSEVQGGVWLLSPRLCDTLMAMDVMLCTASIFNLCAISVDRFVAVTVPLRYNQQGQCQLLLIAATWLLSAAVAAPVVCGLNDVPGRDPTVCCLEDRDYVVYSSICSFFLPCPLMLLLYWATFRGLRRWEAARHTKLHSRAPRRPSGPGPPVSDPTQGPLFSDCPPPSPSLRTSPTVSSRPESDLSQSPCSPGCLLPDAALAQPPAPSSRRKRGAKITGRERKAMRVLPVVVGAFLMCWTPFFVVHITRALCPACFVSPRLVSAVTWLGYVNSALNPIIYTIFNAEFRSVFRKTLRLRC
pKi: −log10 of the molar value.
readoutType: pKi

Data request: Write down the reported pKi of "CN[C@@H](C)Cc1ccc2c(c1)OCO2" , test system: D(4) dopamine receptor (Rattus norvegicus, UniProt P30729).
Data returned: < 5.00

###

# measuredTarget: UniProt P35408
# Sequence (P35408 whole entry): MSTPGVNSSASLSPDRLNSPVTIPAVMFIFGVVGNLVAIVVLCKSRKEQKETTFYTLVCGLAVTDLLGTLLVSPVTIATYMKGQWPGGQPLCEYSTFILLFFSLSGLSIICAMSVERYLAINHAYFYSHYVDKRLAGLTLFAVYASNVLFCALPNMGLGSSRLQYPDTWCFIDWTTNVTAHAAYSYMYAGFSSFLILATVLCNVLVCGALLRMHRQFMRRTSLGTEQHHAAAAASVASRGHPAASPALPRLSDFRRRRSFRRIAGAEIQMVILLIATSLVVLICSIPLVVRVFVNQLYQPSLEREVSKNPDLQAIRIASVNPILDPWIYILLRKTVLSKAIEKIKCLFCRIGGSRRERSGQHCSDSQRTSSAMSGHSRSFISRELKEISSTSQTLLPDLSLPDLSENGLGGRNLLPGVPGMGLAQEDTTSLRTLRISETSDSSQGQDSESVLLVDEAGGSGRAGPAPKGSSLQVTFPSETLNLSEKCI
readoutType: Ki

Data request: What value of Ki on UniProt P35408 does "CN[C@@H](C)Cc1ccc2c(c1)OCO2" have?
Data returned: > 10 µM

###

# measuredTarget: UniProt:P08173
# Sequence (P08173 whole entry): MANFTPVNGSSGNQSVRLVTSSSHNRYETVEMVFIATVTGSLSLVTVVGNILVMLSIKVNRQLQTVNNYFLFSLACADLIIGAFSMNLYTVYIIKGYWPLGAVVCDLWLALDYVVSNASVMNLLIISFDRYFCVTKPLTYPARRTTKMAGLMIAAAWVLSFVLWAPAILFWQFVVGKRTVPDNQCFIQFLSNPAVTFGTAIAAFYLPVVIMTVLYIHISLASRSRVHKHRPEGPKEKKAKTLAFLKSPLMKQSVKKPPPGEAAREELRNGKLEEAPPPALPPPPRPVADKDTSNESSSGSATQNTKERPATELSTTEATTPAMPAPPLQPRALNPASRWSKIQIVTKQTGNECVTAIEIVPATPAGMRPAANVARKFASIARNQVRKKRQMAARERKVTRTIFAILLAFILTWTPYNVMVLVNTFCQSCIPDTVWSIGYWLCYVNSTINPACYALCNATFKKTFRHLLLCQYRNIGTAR
readoutType: Ki

Data request: Recorded Ki of CN[C@@H](C)Cc1ccc2c(c1)OCO2 [DL-(3,4-Methylenedioxy)methamphetamine] , please.
Data returned: 8.25 µM

###

# measuredTarget: 5-hydroxytryptamine receptor 1D (Homo sapiens)
# Sequence (P28221 whole entry): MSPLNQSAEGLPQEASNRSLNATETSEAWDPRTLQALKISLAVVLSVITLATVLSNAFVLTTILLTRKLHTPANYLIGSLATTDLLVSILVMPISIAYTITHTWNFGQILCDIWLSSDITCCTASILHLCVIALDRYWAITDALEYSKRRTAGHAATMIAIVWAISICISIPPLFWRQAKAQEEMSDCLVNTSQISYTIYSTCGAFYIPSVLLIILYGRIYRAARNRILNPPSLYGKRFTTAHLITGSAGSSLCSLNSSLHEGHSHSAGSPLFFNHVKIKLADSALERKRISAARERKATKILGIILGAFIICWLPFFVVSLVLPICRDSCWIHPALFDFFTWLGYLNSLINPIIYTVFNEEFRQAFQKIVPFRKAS
pKi: −log10 of the molar value.
readoutType: pKi

Data request: # pKi lookup, item "CN[C@@H](C)Cc1ccc2c(c1)OCO2"
Data returned: < 5.00

###

# measuredTarget: Muscarinic acetylcholine receptor M5 (Homo sapiens, UniProt P08912)
# Sequence (P08912 whole entry): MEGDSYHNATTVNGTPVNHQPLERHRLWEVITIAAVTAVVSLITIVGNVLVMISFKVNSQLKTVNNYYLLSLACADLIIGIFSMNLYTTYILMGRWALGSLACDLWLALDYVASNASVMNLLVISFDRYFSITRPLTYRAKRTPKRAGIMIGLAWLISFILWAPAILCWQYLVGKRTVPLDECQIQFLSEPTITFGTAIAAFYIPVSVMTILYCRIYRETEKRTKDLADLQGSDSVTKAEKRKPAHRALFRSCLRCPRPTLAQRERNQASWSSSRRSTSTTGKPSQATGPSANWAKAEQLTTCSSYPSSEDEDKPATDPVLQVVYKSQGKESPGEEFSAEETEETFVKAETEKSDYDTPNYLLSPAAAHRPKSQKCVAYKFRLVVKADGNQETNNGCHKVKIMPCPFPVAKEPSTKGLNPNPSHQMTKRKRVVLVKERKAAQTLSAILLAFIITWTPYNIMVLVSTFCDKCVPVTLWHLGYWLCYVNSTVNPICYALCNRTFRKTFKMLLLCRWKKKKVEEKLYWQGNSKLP
readoutType: Ki (µM)
Supply the numeric figure in µM, leaving out any unit text.

Data request: Entry CN[C@@H](C)Cc1ccc2c(c1)OCO2 [DL-(3,4-Methylenedioxy)methamphetamine] has what Ki?
Data returned: 6.34

###

# measuredTarget: D(3) dopamine receptor (Homo sapiens, UniProt P35462)
# Sequence (P35462 as listed by the source): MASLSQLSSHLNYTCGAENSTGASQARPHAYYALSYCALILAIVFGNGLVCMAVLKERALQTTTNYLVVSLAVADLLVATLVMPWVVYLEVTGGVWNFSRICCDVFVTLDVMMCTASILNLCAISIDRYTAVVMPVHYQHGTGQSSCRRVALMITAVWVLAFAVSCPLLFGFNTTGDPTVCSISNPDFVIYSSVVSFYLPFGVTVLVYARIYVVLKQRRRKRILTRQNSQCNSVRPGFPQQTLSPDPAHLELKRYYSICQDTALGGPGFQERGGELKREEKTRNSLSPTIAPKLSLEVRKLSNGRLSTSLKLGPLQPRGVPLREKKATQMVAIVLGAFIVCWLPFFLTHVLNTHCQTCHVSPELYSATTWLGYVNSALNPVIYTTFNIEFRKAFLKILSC
pKi: −log10 of the molar value.
readoutType: pKi

Data request: Notebook entry, D(3) dopamine receptor (Homo sapiens, UniProt P35462) assay: pKi of "CN[C@@H](C)Cc1ccc2c(c1)OCO2" = ?
Data returned: < 5.00

###

# measuredTarget: 5-hydroxytryptamine receptor 7 (Homo sapiens, UniProt P34969)
# Sequence (P34969 whole entry): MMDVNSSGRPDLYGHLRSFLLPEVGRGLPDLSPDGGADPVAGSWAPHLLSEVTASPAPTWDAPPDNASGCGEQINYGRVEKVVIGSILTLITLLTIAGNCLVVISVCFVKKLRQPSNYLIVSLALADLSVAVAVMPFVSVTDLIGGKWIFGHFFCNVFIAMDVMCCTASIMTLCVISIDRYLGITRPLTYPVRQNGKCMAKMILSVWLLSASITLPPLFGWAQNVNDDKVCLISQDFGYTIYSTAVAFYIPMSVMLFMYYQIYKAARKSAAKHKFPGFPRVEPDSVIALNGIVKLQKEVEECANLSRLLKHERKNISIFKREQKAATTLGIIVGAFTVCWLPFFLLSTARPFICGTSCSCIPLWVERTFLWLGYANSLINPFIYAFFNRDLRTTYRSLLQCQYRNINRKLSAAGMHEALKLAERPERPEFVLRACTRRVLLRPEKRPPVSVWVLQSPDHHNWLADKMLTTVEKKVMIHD
readoutType: Ki

Data request: # lookup: Ki of CN[C@@H](C)Cc1ccc2c(c1)OCO2 [DL-(3,4-Methylenedioxy)methamphetamine]
Data returned: > 10 µM

###

# measuredTarget: D(1A) dopamine receptor (Homo sapiens, UniProt P21728)
# Sequence (P21728 whole entry): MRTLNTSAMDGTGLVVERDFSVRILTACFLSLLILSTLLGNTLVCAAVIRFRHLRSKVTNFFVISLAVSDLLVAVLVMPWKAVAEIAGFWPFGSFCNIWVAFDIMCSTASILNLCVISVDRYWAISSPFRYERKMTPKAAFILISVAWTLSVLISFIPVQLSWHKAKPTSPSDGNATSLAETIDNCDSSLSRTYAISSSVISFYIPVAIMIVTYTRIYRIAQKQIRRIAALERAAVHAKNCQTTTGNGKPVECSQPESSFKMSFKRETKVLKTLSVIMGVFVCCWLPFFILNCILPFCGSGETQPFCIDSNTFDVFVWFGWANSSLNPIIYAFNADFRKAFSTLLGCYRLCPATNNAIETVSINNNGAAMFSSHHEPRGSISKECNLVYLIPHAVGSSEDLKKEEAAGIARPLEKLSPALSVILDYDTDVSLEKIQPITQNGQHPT
readoutType: Ki

Data request: Request: Ki, test system D(1A) dopamine receptor (Homo sapiens, UniProt P21728), entry CN[C@@H](C)Cc1ccc2c(c1)OCO2 [DL-(3,4-Methylenedioxy)methamphetamine]
Data returned: > 10 µM

###

# measuredTarget: 5-hydroxytryptamine receptor 2C (Rattus norvegicus, UniProt P08909)
# Sequence (P08909 whole entry): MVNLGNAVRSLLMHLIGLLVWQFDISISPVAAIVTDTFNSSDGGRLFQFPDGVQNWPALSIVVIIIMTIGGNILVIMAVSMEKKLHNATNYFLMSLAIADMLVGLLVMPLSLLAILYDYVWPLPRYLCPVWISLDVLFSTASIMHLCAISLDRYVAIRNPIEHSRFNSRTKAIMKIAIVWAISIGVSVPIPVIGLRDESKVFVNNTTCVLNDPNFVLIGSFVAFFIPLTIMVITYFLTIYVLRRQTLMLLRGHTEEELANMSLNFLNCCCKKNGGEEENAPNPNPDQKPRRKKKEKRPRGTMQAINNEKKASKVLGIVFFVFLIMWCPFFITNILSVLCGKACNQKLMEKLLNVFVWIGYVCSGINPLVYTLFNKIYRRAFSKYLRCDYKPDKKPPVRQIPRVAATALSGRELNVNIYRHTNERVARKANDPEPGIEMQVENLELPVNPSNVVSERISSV
readoutType: Ki

Data request: For the compound shown here, "CN[C@@H](C)Cc1ccc2c(c1)OCO2" , give the reported Ki.
Data returned: > 10 µM

Data origin, for the record: BindingDB's records for doi:10.1124/mol.63.6.1223
